# study-target: T1, PUF4 RNA-binding domain (Saccharomyces cerevisiae, UniProt P25339 537-888)
# T1 sequence: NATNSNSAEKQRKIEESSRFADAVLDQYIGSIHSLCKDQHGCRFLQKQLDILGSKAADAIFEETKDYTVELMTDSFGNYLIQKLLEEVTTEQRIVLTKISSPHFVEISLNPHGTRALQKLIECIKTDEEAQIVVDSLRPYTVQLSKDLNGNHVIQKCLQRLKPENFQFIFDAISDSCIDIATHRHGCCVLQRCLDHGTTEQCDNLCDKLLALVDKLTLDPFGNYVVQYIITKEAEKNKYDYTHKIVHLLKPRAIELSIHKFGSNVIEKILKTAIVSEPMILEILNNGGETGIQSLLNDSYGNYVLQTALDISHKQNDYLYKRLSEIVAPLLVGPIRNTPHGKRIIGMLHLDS
# test-name: Mg; RNA-MaP; 20 mM Na-HEPES pH 7.4, 30 mM KOAc, 0.75 mM MgCl2, 0.1% Tween-20, 5% glycerol, 0.1 mg/mL BSA, 2 mM DTT; 25 C; 0.0125-409.6 nM protein
# assay-conditions: tags: N-His6-TEV cleaved; C-SNAP kept, Cy3B-labelled; label: tethered on chip by stalled RNA polymerase
pKd: −log10 of the molar value.
In this section we review reported pKd values for a set of binders.

Below, each entry is followed by its recorded pKd result.
Ib_S2_P5E.1_K5.1_C5.1_H5.1_[G2T]_A5.1_[T5C]_F5.1_T5.1 (ssRNA) RNA: UUUGAUUAAUAUGAUAUCGUUCUUUCUUUUACUAUUAUUCUUUCUCGAUAUCAUAUUAAUCUUU    < 5.64
UCUCUUUUACACUUAUUAUAUCUCUU (ssRNA) [Id_ii_S1_P5E.4_K5.3_C5.2_[C-2T]_H5.3_A5.1_F5.1_T5.2]    < 5.64

The record that follows has no pKd shown yet.
Please look up its pKd: Ib_S4_P5E.1_K5.1_C5.1_H5.1_[T1G]_[A4C]_A5.1_F5.1_T5.1 (ssRNA) RNA: UUUGACAACUGAUCGUUCUUUCUGGUCUUAUUAUUCUUUCUCGAUCAGUUGUCUUU
< 5.64
